These data points were gathered from patent US20260374754A1.

Measured pEC50 values are reported for all entries that follow.
Biological target: human activated kallikrein enzyme (Homo sapiens, UniProt P03952)
Sequence (P03952 391-638 limits assumed): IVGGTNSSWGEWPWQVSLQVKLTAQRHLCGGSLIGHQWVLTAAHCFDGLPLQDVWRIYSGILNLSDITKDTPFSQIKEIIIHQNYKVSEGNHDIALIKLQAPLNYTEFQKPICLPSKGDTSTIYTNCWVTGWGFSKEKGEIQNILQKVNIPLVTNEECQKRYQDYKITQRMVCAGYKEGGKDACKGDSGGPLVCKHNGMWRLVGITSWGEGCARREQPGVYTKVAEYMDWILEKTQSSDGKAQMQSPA
Sequence (P03952 20-390 partner limits assumed): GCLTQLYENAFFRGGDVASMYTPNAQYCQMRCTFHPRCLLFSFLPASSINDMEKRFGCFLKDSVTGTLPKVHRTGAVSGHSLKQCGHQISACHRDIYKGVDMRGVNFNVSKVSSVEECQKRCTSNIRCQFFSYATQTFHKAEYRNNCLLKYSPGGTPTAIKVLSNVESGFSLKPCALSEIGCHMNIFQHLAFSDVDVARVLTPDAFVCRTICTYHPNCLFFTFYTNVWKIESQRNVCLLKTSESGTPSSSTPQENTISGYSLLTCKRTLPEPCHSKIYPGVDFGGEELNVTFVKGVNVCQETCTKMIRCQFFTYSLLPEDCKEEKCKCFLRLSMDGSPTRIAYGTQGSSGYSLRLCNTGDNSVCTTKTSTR
Assay: Inhibition of human activated plasma kallikrein, fluorogenic PFR-AMC substrate, 500 pM enzyme format
Format: biochemical
Details: 500 pM activated kallikrein; 300 μM PFR-AMC; 30 min preincubation; 10 min room temperature; pH 7.5; read-out: Primary Dose Response Assay: Average EC50
pEC50: −log10 of the molar value.

Answered cases to consult:
[
  {
    "compound-structure-string": "Cc1cc2c(N)nccc2c(C)c1CNc1cc(NCc2ccc(Cn3cccn3)cc2C(F)(F)F)ncn1",
    "system-tested": "human activated kallikrein enzyme (Homo sapiens, UniProt P03952)",
    "data-value": "8.00 to 9.00"
  },
  {
    "compound-structure-string": "Cc1cc2c(N)nccc2c(C)c1CNS(=O)(=O)c1cnn(Cc2cn3cc(C4CC4)ccc3n2)c1",
    "system-tested": "human activated kallikrein enzyme (Homo sapiens, UniProt P03952)",
    "data-value": "7.00 to 8.00"
  },
  {
    "compound-structure-string": "Cc1cc2c(N)nccc2c(C)c1CNc1cc(OCc2cn3cc(C4CC4)ccc3n2)nc(CCC(=O)O)n1",
    "system-tested": "human activated kallikrein enzyme (Homo sapiens, UniProt P03952)",
    "data-value": "> 9.00"
  },
  {
    "compound-structure-string": "Cc1cc2c(N)nccc2c(C)c1CNc1cn2c(Cc3ccc4ccccc4c3)ncc2cn1",
    "system-tested": "human activated kallikrein enzyme (Homo sapiens, UniProt P03952)",
    "data-value": "< 6.00"
  }
]

API: value(readout=pEC50, system=human activated kallikrein enzyme (Homo sapiens, UniProt P03952)) for record Cc1cc2c(N)nccc2c(C)c1CNc1cc(OCc2cc3cc(C4CC4)ccc3s2)ncn1
7.00 to 8.00

API: value(readout=pEC50, system=human activated kallikrein enzyme (Homo sapiens, UniProt P03952)) for record Cc1cc2c(N)nccc2c(C)c1CNc1cc2c(cn1)c(F)cn2Cc1cc2cc(C3CC3)cnc2s1
8.00 to 9.00

API: value(readout=pEC50, system=human activated kallikrein enzyme (Homo sapiens, UniProt P03952)) for record Cc1cc2c(N)nccc2c(C)c1CNc1cc(CCc2ccc(Cn3cccn3)cc2)ncn1
7.00 to 8.00

API: value(readout=pEC50, system=human activated kallikrein enzyme (Homo sapiens, UniProt P03952)) for record Cc1cc2c(N)nccc2c(C)c1CNC(=O)c1cnn(Cc2cc3cc(Br)ccc3o2)c1
8.00 to 9.00
